Each entry below carries its recorded IC90.
tested on: Acinetobacter baumannii ATCC17961; assay: Antimicrobial susceptibility testing: 90% growth inhibitory concentration (IC90) determination; type: cell-based; details: ATCC17961, 90% growth inhibitory concentration, Iso-Sensitest broth, OD 600 nm over 16 h, 35±2° C., read-out: ATCC 17961 IC90

compound	IC90 [nM]
CN(C)c1ccc(-c2cnc(C(=O)Nc3ccc(C(=O)N4CCN(C(=O)C5CCNCC5)CC4)c(Cl)c3)n2C)c(C(F)(F)F)n1	310
CNc1nc(F)c(-c2cnc(C(=O)Nc3ccc(C(=O)N4CCN(C(=O)C5CCNCC5)CC4)c(Cl)c3)n2C)cc1F [Example E1]	1200
COc1ccc(-c2cnc(C(=O)Nc3ccc(C(=O)N4CCN(C(=O)C5CCNCC5)CC4)c(Cl)c3)n2C)c(OC)n1	460
CN(C)c1nc(F)c(-c2cnc(C(=O)Nc3ccc(C(=O)NC4CCN(C(=O)[C@@H]5C[C@@H](O)CN5)CC4)c(Cl)c3)n2C)cc1F	1900
